measurement_notes: yeast display, Sf9 membrane polyspecificity reagent, FACS + sequencing; frameworks hold sequencing errors

>  <residue_string>
QVQLVESGGGLVQAGGSIRLSCAASGFTFAKYSMGWYRQAPVKERELVATITRGGNTYYADSVKGRFTISRDNAKNTVYLQMNSLKPEDTAVYYCAASWYRFSQYKYYYWGQGTKVTVSS

>  <polyreactivity (PSR sort gate)>
high polyreactivity

$$$$
>  <residue_string>
QVQLVESGGGLVQAGGSLRLSCAASGLTFSYYAMGWYRQAPGKERELVAAISWSGGITYYADSVKGRFKISRDNAKNTVYLQMNSLKPEDTAVYYCAADGYPTLFDYWGQGTQVTVAS

>  <polyreactivity (PSR sort gate)>
high polyreactivity

$$$$

* * *

measurement_notes: yeast display, Sf9 membrane polyspecificity reagent, FACS + sequencing; frameworks hold sequencing errors
readout_kind: polyreactivity (PSR sort gate)

>  <residue_string>
QVQLVESGGGLVQAGGSLRLSCAASGRTFGYNAMGWYRQAPGKETELVAAIRYSGGSTYYADSVKGRFTISRDNSKNTVYLQMNSLKPEDTAVYYCAKETRRYYRGYYYWGQGTQVTVSS

>  <readout_kind>
polyreactivity (PSR sort gate)

>  <observed_measurement>
high polyreactivity

$$$$
>  <residue_string>
QVRLVESGGGLVQAGGSLRLSCAASGFIFWRNAMGWYRQAPGKERELVAAITSGGSTNYADSVKGRFTISRDNAKNTVYLQMNSLKPVDTAVYYCAARQWFSHRRWGGSRYDYWGQGTQVTVSS

>  <readout_kind>
polyreactivity (PSR sort gate)

>  <observed_measurement>
low polyreactivity

$$$$
>  <residue_string>
QVQLVESGGGLVQAGGSLRLSCAASGFTFDIYAMGWYRQAPGKERELVATISFTGDTTSYADSVKGRFTISRHNAKNTVYLQMNSLKPEDTAVYYCAADGSYPLSVGRENLHYAEFDYWGQGTQVTVSS

>  <readout_kind>
polyreactivity (PSR sort gate)

>  <observed_measurement>
low polyreactivity

$$$$
>  <residue_string>
QVQLQESGGGLVQAGGGLRLSCAASGTISGPHVMGWYRQAPGKEREFVAAINVGANTYYADNVKGRFTISRDNAKNTVYLQMNSLNPEDTAVYYCAAVYYGDIGHEYWGQGTQVTVSC

>  <readout_kind>
polyreactivity (PSR sort gate)

>  <observed_measurement>
low polyreactivity

$$$$
>  <residue_string>
QVQLVDSGGGLVQAGGSLRLSCAASGFILYFNAMGWYRQAHGKERELVAAISRGDGSTYADSVKGRFTISRDNAKNTVYLQMNSLKAQDTAVYYCNAGLGVVVTHYVGYGYDSWGQGTQVTVSS

>  <readout_kind>
polyreactivity (PSR sort gate)

>  <observed_measurement>
low polyreactivity

$$$$
>  <residue_string>
QVQLVESGGGLDQAGGSLRLSCAAAGRTFPYYAMGWYRQAPGKERELVATISTSGTSTYYADSVKGRFTISRDKAKNTVYLQMNSLKPEDTAVYYCNAVHRNWRQKFDYWGLGTQVTVSS

>  <readout_kind>
polyreactivity (PSR sort gate)

>  <observed_measurement>
high polyreactivity

$$$$
>  <residue_string>
QVHLVESGGGLVQAAGSLRLSCAASGRIFSYNAMGWYRPAPGKERELVAAISSDGSTYYADSVKGRFTISRDNAKNTVYLQMNSLKPEDTAVYYCAASQVVWFDYTTAQVGSYKVNYWGQGTQVSVSS

>  <readout_kind>
polyreactivity (PSR sort gate)

>  <observed_measurement>
low polyreactivity

$$$$
>  <residue_string>
QVQLVESGGGLVQAGGSLRLSCASSGFTFYKYVMGGYRQDPGKEREMVAASSRSGGSTYYADSVKGRFTISRDNAKNTVYLQMNSLIPEDTAVYSCAKDSCGAPEGPYDYWGQGTQVTVSS

>  <readout_kind>
polyreactivity (PSR sort gate)

>  <observed_measurement>
high polyreactivity

$$$$
>  <residue_string>
QVQLVESGGGLVQAGGSLRLSCAASGSTIVYYAMGWYRQAPGKERELVARITWSGGRTYADSVKGRFTISRDNAKNTVYLQMNSLKPEDTAVYYCNADPGDNTTEYDYWGQGTQVTVSS

>  <readout_kind>
polyreactivity (PSR sort gate)

>  <observed_measurement>
low polyreactivity

$$$$
>  <residue_string>
QVQLVESGGGLVQAGGSLRLSCAASGSTFRTKAMGWYRHAPGKERELVAAITSGTRTYYADSVKGRFTLSRDNAKNTVYLQMNSLKPEDTAVYYCAAEYYGSSYSNYRTEYDYWGQGTQVTVSS

>  <readout_kind>
polyreactivity (PSR sort gate)

>  <observed_measurement>
low polyreactivity

$$$$

Could you now consider this next sequence?
[Q] Fill in the blank: the reported polyreactivity (PSR sort gate) of "QDQHVESGGGLVQAGGSLRLSCAASGLTSLGNAMGWYRQAPGKERELVAAITRTGTSTYYADSVKGRFTISRDNAKNTVYLQMNSLKPEDTAVYYCAADWWYGYSNYDYWGQGTQVTVSS" is ____.
[A] low polyreactivity

* * *

measurement_notes: yeast display, Sf9 membrane polyspecificity reagent, FACS + sequencing; frameworks hold sequencing errors
readout_kind: polyreactivity (PSR sort gate)

// worked examples, polyreactivity (PSR sort gate) included
>  <residue_string>
QVQLVESGGGLVQAGGRLRLSCAASGRIFYFYDMGWYRQAPGTERELGAAISRGGSTNYADSVKGRFTISRDNAKNTVYLQMNRLKPQDTAVYYCNAGLYDLRDIAGYSDYDYWGQGTQVTVSS

>  <polyreactivity (PSR sort gate)>
low polyreactivity

$$$$
>  <residue_string>
QVQLVESGGGLVQEGGSLRLSCAASGSIFGRNAMGWYRQAPGKERELVAAITSRTGSTFYADSVKGRFTISRDNAKNTDYLQMNSLKPEATAVYYCKAAGPAFSYYHWLWGDYNSWGQGTQVTVSS

>  <polyreactivity (PSR sort gate)>
low polyreactivity

$$$$
>  <residue_string>
QVQLVESGGGLVQAGGSLRLSCAASGSTIQLYAMGWYRQAPGKERELVAAITSSAGRTYYADSVKGRFTISRDNAKNTVYLQMNSLKPEDTAVYYCAKDGSFTFWGQGTQVTVSS

>  <polyreactivity (PSR sort gate)>
low polyreactivity

$$$$
>  <residue_string>
QVQHVESGGGLVQAGGSLRLSCAASGSTFDRYAMGWNRQAPGKERELVAAISGGGGSTYYADSVKGRFTISRDNAKNTVYLQMNSLKPEDTAVYYCAKLLARGNRYDSWGQGTQLTVSS

>  <polyreactivity (PSR sort gate)>
high polyreactivity

$$$$

Could you now consider this next sequence?
[Q] Fill in the blank: the reported polyreactivity (PSR sort gate) of "QVQLVESGGGLVQAGGSLRLSCAASGRTFVPYAMGWYRQAHGKERELVAAIDKSDGSTYYADSVKGRFTISRDNAKNTVYLKMNSLKPEDSAVYFCNAEGYTYRYYTIYNYCGQGTQVTVSS" is ____.
[A] high polyreactivity

* * *

measurement_notes: yeast display, Sf9 membrane polyspecificity reagent, FACS + sequencing; frameworks hold sequencing errors
readout_kind: polyreactivity (PSR sort gate)

>  <residue_string>
QVQLVESGGGLVQAGGSLRLSAASGSTLAGNTMGWYRQAPGKERELVAAINDSGGSTYYADSVKGRFTISRDNAKNTVYLQMNSLKPEDTAVYYCNAEGSAYIEDGYDYWGQGTQVTVSS

>  <polyreactivity (PSR sort gate)>
low polyreactivity

$$$$
>  <residue_string>
QVQLVESGGGLVQAGGSIRLSCAASGRIFYTYAMGWYRPAPGKERELVAAISSRTGSTYYADSVKGRFTISRDNAKNTVYLQMNSLKPEDTAVYYCNAYRLRYGYDYWGQGTQVTVSS

>  <polyreactivity (PSR sort gate)>
high polyreactivity

$$$$
>  <residue_string>
QVQLVESGGGIVQAGGSLRLICAASGRIFPYNVMGWYRQAPGKERELVAAISSGGTTDYADSVKGRFTISRDNAKNTVYLQMNSLKPEDTAVYYCAATYVYWTWGYDYWGQGTQVTVSS

>  <polyreactivity (PSR sort gate)>
low polyreactivity

$$$$
>  <residue_string>
QVQLVESGGGLVQAGGSLRLSCAASGLTFNVYAMGWYRPAPGKERELVASITKRGGSTYYADSVKGRFTISRDNAKNTVYLQMNSLKPEDTAVYYCAADGLTGSKYRATGYYWGQGTQVTVSS

>  <polyreactivity (PSR sort gate)>
high polyreactivity

$$$$
>  <residue_string>
QVQLVESGGGLVQAGGSLRLSCAASGITFDRYAMAWYRHAPGKERELVAAITSSGGRTYYADSVKGRFTISRDNAKNTVYLQMNSLKPEDTAVYYCNTPWQNRADSHRDYWGQGTQVTVSS

>  <polyreactivity (PSR sort gate)>
high polyreactivity

$$$$
>  <residue_string>
QVQLVEAGGGLVQAGGSLRLSCAASGSIFSHNAMGWYRQAPGKERELVAAISVSGGTTYYADSVKGRFTISRDNAKNTVYLQMNSLKPEDTAVYYCAAKRFQGVGYLGQGTQVTVSS

>  <polyreactivity (PSR sort gate)>
high polyreactivity

$$$$

I'm hoping you can list polyreactivity (PSR sort gate) for every sequence here, please.
1. QVQLVESGGGLVQAGGSLRLSCAASGRILYRYAMGWSRQAAGTEREVVAAISRSGGDTYYADSVKGRFTISRDNAKNTVYLQMNSLKPEDTAVYYCAGYSSWSGGLGGVYYWGQGTQVTVSS
2. QVQRVESGGGLVQAGGRLRLSFAAAGIIFKVNAMGWYRQAPGKERELVPAISWSGSSTYYADSVKGRFTISRDNAKNTVYLQMNSLKPEDTAVYYCGTRWFAVHMYWGQGTQVTVSS
3. QVQHVDSVGGLVQAGRSLRLICAASGSTFTSYTKGWYRQAPLKERELVDRITRGGGSTYYADSVKGRFTISRDNAKNTVYLQMNSLKQEDTAVYYCAKHVVGSAYYSWGQGTQVTVSS
4. QVQLVESGGGLVQAGGSLRLSCAASGSIFNPYAMGWSRQAPGKEWELVAAISYDTTSTYYADSVKGRFTISRDNAKNTDYLQMNSLKPEDTAVYYCAARDQYGPGYRSESLDSWGQGTQETVSS
5. QVQLVESGGGLVQAGGSLRLSCAASGRIFYYNTMGWYRQAPGKESELVAAISWSGGSTFYADSVKGRFTISRDNAKNTVYLQMNSLKPEDTAVYYCARYKLRSGRSGDHDDYWGQGTQVTVSS

[A]
1: low polyreactivity; 2: high polyreactivity; 3: low polyreactivity; 4: low polyreactivity; 5: high polyreactivity
